molecular target: CB2 cannabinoid receptor (UniProt P34972)
pKi: −log10 of the molar value.
MEASUREMENT TYPE: pKi

Hey, CB2 cannabinoid receptor (UniProt P34972) data for `Cc1c(C(=O)NN2CCS(=O)(=O)CC2)nc(-c2ccc(Cl)cc2Cl)n1-c1ccc(C#CCCC#N)cc1` : pKi came out at < 6.00
